Target: Cloned Human Serotonin Receptor, Subtype 7 (h5HT7) (Homo sapiens)
Construct: purchased PerkinElmer 6120512; host or cells: CHO cells
Sequence (P34969 whole entry): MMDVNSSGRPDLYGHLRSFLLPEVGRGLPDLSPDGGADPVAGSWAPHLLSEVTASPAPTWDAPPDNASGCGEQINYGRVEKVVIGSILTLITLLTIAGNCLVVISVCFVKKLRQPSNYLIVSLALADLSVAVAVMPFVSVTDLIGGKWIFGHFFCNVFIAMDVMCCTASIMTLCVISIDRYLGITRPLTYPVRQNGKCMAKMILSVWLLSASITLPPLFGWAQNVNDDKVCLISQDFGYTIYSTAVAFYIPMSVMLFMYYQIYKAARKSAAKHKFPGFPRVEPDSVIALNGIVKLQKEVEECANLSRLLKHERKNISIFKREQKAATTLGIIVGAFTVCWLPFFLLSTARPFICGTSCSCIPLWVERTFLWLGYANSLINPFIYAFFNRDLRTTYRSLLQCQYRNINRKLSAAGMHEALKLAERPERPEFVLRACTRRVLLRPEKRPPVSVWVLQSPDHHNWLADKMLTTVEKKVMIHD
Test: Radioligand binding 5HT7
Details: read-out: % Inh (10^−7 M)
Could you label it TRUE if measured inhibition at 0.1 µM is 70% or higher, and FALSE otherwise?

compound="CCN(CC)CCc1cccc(-c2c(C)nn(C)c2C)c1 [Chemical Example 3]" assigned_category=FALSE
compound="Cc1cccc(C)c1-c1cccc(CCN(C)C)c1 [Chemical Example 9]" assigned_category=TRUE
compound="COc1cccc(OC)c1-c1cccc(CCN(C)C)c1 [Chemical Example 13]" assigned_category=FALSE
compound="CCN(CC)CCc1cccc(-c2c(C)cccc2C)c1 [Chemical Example 11]" assigned_category=FALSE
compound="CN(C)CCc1cccc(-c2cnn(C)c2)c1 [Chemical Example 17]" assigned_category=FALSE
compound="CCCN(CCC)CCc1cccc(-c2c(C)cccc2C)c1 [Chemical Example 12]" assigned_category=TRUE
compound="CCCN(CCC)CCc1cccc(-c2ccccc2OC)c1 [Chemical Example 24]" assigned_category=FALSE
compound="CCCN(CCC)CCc1cccc(-c2c(C)nn(C)c2C)c1 [Chemical Example 4]" assigned_category=TRUE
compound="Cc1nn(C)c(C)c1-c1cccc(CCN(C)C)c1 [Chemical Example 1]" assigned_category=TRUE
